- tested.on: Sodium-dependent serotonin transporter (Rattus norvegicus, UniProt P31652)
- Sequence (P31652 whole entry): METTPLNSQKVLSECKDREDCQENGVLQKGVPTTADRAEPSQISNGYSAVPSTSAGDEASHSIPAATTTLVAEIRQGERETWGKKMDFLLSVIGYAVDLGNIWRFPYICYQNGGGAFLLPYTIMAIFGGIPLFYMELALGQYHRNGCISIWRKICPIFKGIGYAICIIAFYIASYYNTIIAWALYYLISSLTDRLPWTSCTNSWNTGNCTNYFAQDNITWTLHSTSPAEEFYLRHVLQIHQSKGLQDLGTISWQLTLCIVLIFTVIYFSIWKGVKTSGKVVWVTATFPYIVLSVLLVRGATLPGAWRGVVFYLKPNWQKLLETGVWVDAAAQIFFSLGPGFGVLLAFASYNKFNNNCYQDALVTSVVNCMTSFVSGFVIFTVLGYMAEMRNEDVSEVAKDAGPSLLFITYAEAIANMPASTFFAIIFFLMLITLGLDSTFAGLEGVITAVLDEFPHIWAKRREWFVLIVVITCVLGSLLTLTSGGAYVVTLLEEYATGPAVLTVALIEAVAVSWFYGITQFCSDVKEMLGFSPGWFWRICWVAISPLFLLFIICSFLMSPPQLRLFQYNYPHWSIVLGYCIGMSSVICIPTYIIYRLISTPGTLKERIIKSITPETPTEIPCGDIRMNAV
- protocol.description: Displacement of [3H]-citalopram from serotonin transporter of rat brain membrane
- Format: tissue-based
measured.parameter: pKi
Scale: pKi equals -log10([C]), with [C] in mol/L.

Problem: Answer with the recorded pKi of CC(C)COC(=O)[C@H]1CC2C[C@H](OC(c3ccc(F)cc3)c3ccc(F)cc3)CC1N2C (stereo partly specified) only.
Result: 5.10

Problem: Answer with the recorded pKi of COS(=O)(=O)[C@H]1CC2C[C@H](OC(c3ccc(F)cc3)c3ccc(F)cc3)CC1N2C (stereo partly specified) only.
Result: 4.86

Problem: Answer with the recorded pKi of CCOC(=O)[C@H]1CC2C[C@H](OC(c3ccc(F)cc3)c3ccc(F)cc3)CC1N2C (stereo partly specified) only.
Result: 4.85

Problem: Answer with the recorded pKi of CN1C2CC(OC(c3ccc(F)cc3)c3ccc(F)cc3)CC1[C@H](O)C2 (stereo partly specified) only.
Result: 4.93

Problem: Answer with the recorded pKi of CN1C2C[C@H](OC(c3ccc(F)cc3)c3ccc(F)cc3)CC1[C@@H](C(=O)OCCc1ccccc1)C2 (stereo partly specified) only.
Result: 5.10

Problem: Answer with the recorded pKi of CC(C)OC(=O)[C@H]1CC2C[C@H](OC(c3ccc(F)cc3)c3ccc(F)cc3)CC1N2C (stereo partly specified) only.
Result: 4.83

Problem: Answer with the recorded pKi of CN1C2CC(OC(c3ccc(F)cc3)c3ccc(F)cc3)CC1[C@@H](C(=O)O)C2 (stereo partly specified) only.
Result: 5.08

Problem: Answer with the recorded pKi of COC(=O)[C@H]1CC2C[C@H](OC(c3ccc(F)cc3)c3ccc(F)cc3)CC1N2C (stereo partly specified) only.
Result: 4.78

Problem: Answer with the recorded pKi of CN1C2C[C@H](OC(c3ccc(F)cc3)c3ccc(F)cc3)CC1[C@@H](C(=O)OCc1ccccc1)C2 (stereo partly specified) only.
Result: 5.23

Problem: Answer with the recorded pKi of CN1C2C[C@H](OC(c3ccc(F)cc3)c3ccc(F)cc3)CC1[C@@H](C(=O)Oc1ccccc1)C2 (stereo partly specified) only.
Result: 5.43

Problem: Answer with the recorded pKi of O=C(Oc1ccccc1)[C@H]1CC2C[C@H](OC(c3ccc(F)cc3)c3ccc(F)cc3)CC1N2 (stereo partly specified) only.
Result: 5.35

====

- tested.on: Norepinephrine transporter (Rattus norvegicus)
- Sequence (Q9WTR4 whole entry): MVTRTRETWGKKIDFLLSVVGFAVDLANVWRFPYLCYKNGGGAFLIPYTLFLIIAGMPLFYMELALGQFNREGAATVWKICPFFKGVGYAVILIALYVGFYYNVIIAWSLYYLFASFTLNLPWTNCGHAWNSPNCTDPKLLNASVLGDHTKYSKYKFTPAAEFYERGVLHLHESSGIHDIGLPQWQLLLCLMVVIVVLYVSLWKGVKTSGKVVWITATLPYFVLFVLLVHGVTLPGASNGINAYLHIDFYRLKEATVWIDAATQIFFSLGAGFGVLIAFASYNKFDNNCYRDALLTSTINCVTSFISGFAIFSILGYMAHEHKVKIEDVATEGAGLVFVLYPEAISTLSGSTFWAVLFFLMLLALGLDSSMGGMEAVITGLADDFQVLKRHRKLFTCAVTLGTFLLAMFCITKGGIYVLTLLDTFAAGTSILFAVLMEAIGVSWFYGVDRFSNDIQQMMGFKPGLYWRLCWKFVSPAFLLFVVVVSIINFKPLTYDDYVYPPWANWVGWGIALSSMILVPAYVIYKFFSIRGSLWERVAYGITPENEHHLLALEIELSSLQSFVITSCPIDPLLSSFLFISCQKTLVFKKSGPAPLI
- protocol.description: Displacement of [3H]-[…] from norepinephrine transporter of rat brain membrane
- Type: tissue-based
measured.parameter: Ki

Problem: Answer with the recorded Ki of CN1C2C[C@H](OC(c3ccc(F)cc3)c3ccc(F)cc3)CC1[C@@H](C(=O)Oc1ccccc1)C2 (some centres undefined) only.
Result: 1.37 µM

Problem: Answer with the recorded Ki of CN1C2C[C@H](OC(c3ccc(F)cc3)c3ccc(F)cc3)CC1[C@@H](C(=O)OCCc1ccccc1)C2 (some centres undefined) only.
Result: 5.69 µM

Problem: Answer with the recorded Ki of COS(=O)(=O)[C@H]1CC2C[C@H](OC(c3ccc(F)cc3)c3ccc(F)cc3)CC1N2C (some centres undefined) only.
Result: 6.88 µM

Problem: Answer with the recorded Ki of CC(C)COC(=O)[C@H]1CC2C[C@H](OC(c3ccc(F)cc3)c3ccc(F)cc3)CC1N2C (some centres undefined) only.
Result: 6.61 µM
